Listed here are compounds together with their documented Glucagon concentration Avg..
# assay-comment: High throughput screening of water-soluble solid excipients for glucagon dissolution
# Assay type: physicochemical
# measurement-context: solubilized glucagon after 30-minute incubation of lyophilized glucagon in pH 7.4 PBS containing 1 mg/mL excipient, 37° C.

compound	Glucagon concentration Avg. / mg/mL
CCCCCCCCCCCCCC[N+](C)(C)CCCS(=O)(=O)[O-] [Myristyl sulfobetaine]	1.15
N[C@@H](CS)C(=O)O [L-Cysteine]	0.13
O=S(=O)(O)CC(O)CN(CCO)CCO (stereo not drawn) [DIPSO]	0.28
O=C(CO)[C@@H](O)[C@H](O)[C@H](O)CO [D-(−)-Fructose]	0.23
O=S(=O)(O)CCN1CCN(CCS(=O)(=O)O)CC1	0.80
OC[C@@H](O)[C@@H](O)[C@H](O)[C@H](O)CO [Mannitol]	0.54
CCCCCCCCCCCC[N+](C)(C)CCCS(=O)(=O)O [Lauryl sulfobetaine]	0.11
OC[C@H]1O[C@@H]2O[C@H]3[C@H](O)[C@@H](O)[C@@H](O[C@H]4[C@H](O)[C@@H](O)[C@@H](O[C@H]5[C@H](O)[C@@H](O)[C@@H](O[C@H]6[C@H](O)[C@@H](O)[C@@H](O[C@H]7[C@H](O)[C@@H](O)[C@@H](O[C@H]8[C@H](O)[C@@H](O)[C@@H](O[C@H]1[C@H](O)[C@H]2O)O[C@@H]8CO)O[C@@H]7CO)O[C@@H]6CO)O[C@@H]5CO)O[C@@H]4CO)O[C@@H]3CO [B-Cyclodextrin]	0.30
O=C(O)CN(CCOCCOCCN(CC(=O)O)CC(=O)O)CC(=O)O [EGTA]	0.67
N[C@@H](Cc1c[nH]c2ccccc12)C(=O)O [L-Tryptophan]	0.33
OCCN(CCO)C(CO)(CO)CO [BIS-TRIS]	0.36
O=C[C@H](O)[C@@H](O)[C@@H](O)CO [L-(+)-Arabinose]	0.33
N[C@@H](Cc1c[nH]cn1)C(=O)O [L-histidine]	0.55
NC(CO)(CO)CO [Tris base]	0.54
O.O=C[C@H](O)[C@@H](O)[C@H](O)[C@H](O)CO [Dextrose Monohydrate]	0.24
O=S([O-])S(=O)[O-].[Na+].[Na+] [Sodium Dithionite]	0.49
O=S(=O)(O)CCCN1CCN(CCO)CC1 [EPPS]	0.17
O=C([O-])[C@H](O)[C@@H](O)[C@H](O)[C@H](O)CO.[K+] [Potassium Gluconate]	0.35
CNC[C@H](O)[C@@H](O)[C@H](O)[C@H](O)CO [Meglumine]	1.32
NC(=O)C[C@H](N)C(=O)O.O [Asparagine monohydrate]	0.33
OC[C@@H](O)[C@@H](O)[C@H](O)[C@@H](O)CO [D-Sorbitol]	0.25
O=C1NS(=O)(=O)c2ccccc21.[Na] [Saccharin Sodium]	0.26
NCCC(=O)O [Beta-Alanine]	0.29
O=C([O-])c1ccccc1O.[Na+] [Sodium Salicylate]	0.40
CSCC[C@H](N)C(=O)O [Methionine]	0.39
CC(C)C[C@H](N)C(=O)O [L-leucine]	0.28
NC(=O)c1cccnc1 [Niacinamide]	0.25
O=S(=O)(O)CC(O)CN1CCOCC1 (stereo not drawn) [MOPSO]	0.29
CCCCCCCC[N+](C)(C)CCCS(=O)(=O)[O-] [Octyl sulfobetaine]	0.25
O=C(O)C(S)C(S)C(=O)O (stereo not drawn) [Dimercaptosuccinic acid]	0.51
OC[C@H]1O[C@H](O[C@H]2O[C@H](CO)[C@@H](O)[C@H](O)[C@H]2O)[C@H](O)[C@@H](O)[C@@H]1O [D-(+)-Trehalose]	0.33
OC[C@H]1O[C@@](CO)(O[C@H]2O[C@H](CO)[C@@H](O)[C@H](O)[C@H]2O)[C@@H](O)[C@@H]1O [Sucrose]	0.28
CC(C)(O)C(Cl)(Cl)Cl [Chlorobutanol Hemihydrate]	0.39
NC(=O)CC[C@H](N)C(=O)O [L-Glutamine]	0.83
[Cl-].[K+] [Potassium chloride]	0.41
O=C(O)/C=C\C(=O)O [Maleic Acid]	0.07
CCCCCCCCCCCCOP(=O)([O-])OCC[N+](C)(C)C [Dodecylphosphocholine]	0.94
O=C(O)CN(CCN(CC(=O)O)CC(=O)O)CCN(CC(=O)O)CC(=O)O [Pentetic Acid]	0.42
O=C(O)c1ccccc1 [Benzoic acid]	3.25
